- system-name: human MCR4 receptor (Homo sapiens, UniProt P32245)
- Construct: expressed in transfected cells
- Sequence (P32245 whole entry): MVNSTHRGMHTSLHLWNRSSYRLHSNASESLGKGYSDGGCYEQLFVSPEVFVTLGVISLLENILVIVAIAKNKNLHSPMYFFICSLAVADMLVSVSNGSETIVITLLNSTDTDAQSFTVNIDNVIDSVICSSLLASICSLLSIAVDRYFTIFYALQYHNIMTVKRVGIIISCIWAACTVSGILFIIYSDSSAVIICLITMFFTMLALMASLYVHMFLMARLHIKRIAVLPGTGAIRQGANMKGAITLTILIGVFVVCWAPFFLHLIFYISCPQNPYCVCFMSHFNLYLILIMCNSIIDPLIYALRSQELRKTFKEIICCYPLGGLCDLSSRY
- procedure-text: MCR4 improved functional assay (Protocol E): CHO-K1-MC4R-CRE-β-lactamase reporter
- Type: cell-based
- condition-parameters: functional potency at the MC4 receptor (EC50), Protocols C or E
pEC50: −log10 of the molar value. Where a name gives a salt, the structure may show the parent alone.
Reported pEC50 values for the following molecules.

molecule | pEC50
C[C@@H]1CN(C(=O)[C@@H]2CN(C(C)(C)C)C[C@H]2c2ccc(F)cc2F)C[C@H](C)[C@@]1(O)c1cccc(F)c1 [Example 19, hydrochloride] | > 8.00
CCN1C[C@@H](C(=O)N2C[C@@H](C)[C@](O)(c3cccc(F)c3)[C@@H](C)C2)[C@H](c2ccc(F)cc2F)C1 [Example 53, hydrochloride] | > 7.30
C[C@@H]1CN(C(=O)[C@@H]2CN(C(C)(C)C)C[C@H]2c2ccc(F)cc2F)C[C@H](C)[C@@]1(O)c1ccc(F)cc1F.Cl [Example 15, hydrochloride] | > 7.30
CC(C)N1C[C@@H](C(=O)N2C[C@@H](C)[C@](O)(c3ccccc3)[C@@H](C)C2)[C@H](c2ccc(F)cc2F)C1.Cl [Example 6, hydrochloride] | > 7.30

====

- system-name: human MCR5 receptor (Homo sapiens)
- Construct: expressed in transfected cells
- Sequence (P33032 whole entry): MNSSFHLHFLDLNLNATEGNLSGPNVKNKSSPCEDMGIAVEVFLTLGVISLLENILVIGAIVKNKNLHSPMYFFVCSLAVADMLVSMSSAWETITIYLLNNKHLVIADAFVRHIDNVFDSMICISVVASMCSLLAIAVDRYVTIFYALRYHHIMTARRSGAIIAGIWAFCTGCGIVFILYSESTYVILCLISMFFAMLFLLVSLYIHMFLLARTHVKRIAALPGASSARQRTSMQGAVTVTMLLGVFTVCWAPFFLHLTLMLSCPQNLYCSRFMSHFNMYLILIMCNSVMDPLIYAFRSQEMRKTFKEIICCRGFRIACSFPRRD
- procedure-text: MCR5 standard functional assay (Protocol D): CHO-K1-MC5R-CRE-β-lactamase reporter
- Type: cell-based
- condition-parameters: Table 5; Protocol D
pEC50: −log10 of the molar value.

smiles-entry | pEC50
C[C@@H]1CN(C(=O)[C@@H]2CN(C(C)(C)C)C[C@H]2c2ccc(F)cc2F)C[C@H](C)[C@@]1(O)c1ccccc1 | 5.17

====

Reported EC50 values for the following compounds.
- system-name: human MCR4 receptor (Homo sapiens, UniProt P32245)
- Construct: expressed in transfected cells
- procedure-text: MCR4 standard functional assay (Protocol C): cAMP AlphaScreen in HEK cells
- Type: cell-based
- condition-parameters: Table 5
reported-property: EC50 (nM)

compound | quantitative-result
Cc1ccc([C@@]2(O)[C@H](C)CN(C(=O)[C@@H]3CN(C(C)(C)C)C[C@H]3c3ccc(F)cc3F)C[C@@H]2C)cc1 | 45
C[C@@H]1CN(C(=O)[C@@H]2CN(C(C)(C)C)C[C@H]2c2ccc(F)cc2F)C[C@H](C)[C@@]1(O)c1ccccc1 | 25
CCCC[C@@]1(O)[C@H](C)CN(C(=O)[C@@H]2CN(C(C)(C)C)C[C@H]2c2ccc(F)cc2F)C[C@@H]1C | 44
CCN1C[C@@H](C(=O)N2C[C@@H](C)[C@](O)(C3CCCCC3)[C@@H](C)C2)[C@H](c2ccc(F)cc2F)C1 (relative stereo) | 68

====

- system-name: human MCR4 receptor (Homo sapiens)
- Construct: expressed in transfected cells
- procedure-text: MCR4 improved functional assay (Protocol E): CHO-K1-MC4R-CRE-β-lactamase reporter
- Format: cell-based
- condition-parameters: Protocols C or E, read-out: functional potency at the MC4 receptor (EC50)
- Text: (ii) MCR5 Standard Functional Assay Methodology and MCR4 Improved Functional Assay Methodology [Assay Protocol D and E Respectively] […] The quantity of β-lactamase enzyme produced was directly proportional to the degree to which the test compound activated the MCR5 or MCR4 receptors present on these cells and was quantified using the P-lactamase gene reporter analysis kit that is commercially available from Invitrogen Life Technologies. […]
Structures can show the parent of a compound that is named as a salt.
Reported EC50 values for the following compounds.

compound | EC50
C[C@@H]1CN(C(=O)[C@@H]2CN(C(C)(C)C)C[C@H]2c2ccc(F)cc2F)C[C@H](C)[C@@]1(O)c1ccccc1 | < 0.01 µM
C[C@@H]1CN(C(=O)[C@@H]2CN(C(C)(C)C)C[C@H]2c2ccc(F)cc2F)C[C@H](C)[C@@]1(O)c1c(F)cccc1F [Example 17, hydrochloride] | < 0.05 µM
C[C@@H]1CN(C(=O)[C@@H]2CN(c3cccnc3)C[C@H]2c2ccc(F)cc2F)C[C@H](C)[C@@]1(O)c1ccccc1 [Example 34, hydrochloride] | < 0.01 µM
C[C@@H]1CN(C(=O)[C@@H]2CN(C(C)(C)C)C[C@H]2c2ccc(F)cc2F)C[C@H](C)[C@@]1(O)c1ccc(F)c(F)c1 [Example 8, hydrochloride] | < 0.01 µM
C[C@@H]1CN(C(=O)[C@@H]2CN(c3ccccn3)C[C@H]2c2ccc(F)cc2F)C[C@H](C)[C@@]1(O)c1ccccc1.Cl [Example 31, hydrochloride] | < 0.01 µM
C[C@@H]1CN(C(=O)[C@@H]2CNC[C@H]2c2ccc(Cl)cc2)C[C@H](C)[C@@]1(O)c1ccccc1 [Example 48, hydrochloride] | < 0.15 µM

====

- system-name: human MCR1 receptor (Homo sapiens, UniProt Q01726)
- Construct: expressed in transfected cells
- Sequence (Q01726 whole entry): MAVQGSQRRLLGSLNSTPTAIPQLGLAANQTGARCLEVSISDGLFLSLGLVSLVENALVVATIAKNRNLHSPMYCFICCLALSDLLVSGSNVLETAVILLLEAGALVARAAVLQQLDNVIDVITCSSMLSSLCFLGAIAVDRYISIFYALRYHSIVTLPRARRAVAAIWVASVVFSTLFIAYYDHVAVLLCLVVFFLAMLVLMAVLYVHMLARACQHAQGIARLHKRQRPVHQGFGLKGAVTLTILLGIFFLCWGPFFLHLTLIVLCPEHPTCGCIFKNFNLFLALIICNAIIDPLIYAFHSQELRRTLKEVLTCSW
- procedure-text: MCR1 standard functional assay (Protocol A): cAMP AlphaScreen in HEK cells
- Assay type: cell-based
- condition-parameters: Table 6; MCR4 by Protocol E
Reported Selectivity MCR1/MCR4 values for the following molecules.

molecule | Selectivity MCR1/MCR4
CC(C)N1C[C@@H](C(=O)N2C[C@@H](C)[C@](O)(c3ccccc3)[C@@H](C)C2)[C@H](c2ccc(F)cc2F)C1.Cl [Example 6] | 28
C[C@@H]1CN(C(=O)[C@@H]2CN(c3ccccn3)C[C@H]2c2ccc(F)cc2F)C[C@H](C)[C@@]1(O)c1ccccc1.Cl [Example 31] | 2969
C[C@@H]1CN(C(=O)[C@@H]2CN(c3cccnn3)C[C@H]2c2ccc(F)cc2F)C[C@H](C)[C@@]1(O)c1ccccc1.Cl [Example 35] | 847
C[C@@H]1CN(C(=O)[C@@H]2CN(C(C)(C)C)C[C@H]2c2ccc(F)cc2F)C[C@H](C)[C@@]1(O)c1ccccc1 [Example 1] | 125
C[C@@H]1CN(C(=O)[C@@H]2CN(C(C)(C)C)C[C@H]2c2ccc(F)cc2F)C[C@H](C)[C@@]1(O)c1ccccc1.Cl [Example 5] | 125
C[C@@H]1CN(C(=O)[C@@H]2CN(C(C)(C)C)C[C@H]2c2ccc(F)cc2F)C[C@H](C)[C@@]1(O)c1ccc(Cl)cc1.Cl [Example 13] | 311
C[C@@H]1CN(C(=O)[C@@H]2CNC[C@H]2c2ccc(F)cc2F)C[C@H](C)[C@@]1(O)c1ccc(F)cc1.Cl [Example 12] | 9

====

- system-name: human MCR1 receptor (Homo sapiens, UniProt Q01726)
- Construct: expressed in transfected cells
- procedure-text: MCR1 standard functional assay (Protocol A): cAMP AlphaScreen in HEK cells
- Assay type: cell-based
- condition-parameters: Table 6; Protocol A
pEC50: −log10 of the molar value.
If the reported pEC50 equals or exceeds 6, assign condition met. If not, assign condition not met.

compound | label-value
CC(C)N1C[C@@H](C(=O)N2C[C@@H](C)[C@](O)(c3ccccc3)[C@@H](C)C2)[C@H](c2ccc(F)cc2F)C1.Cl [Example 6, hydrochloride] | condition met
C[C@@H]1CN(C(=O)[C@@H]2CN(C(C)(C)C)C[C@H]2c2ccc(F)cc2F)C[C@H](C)[C@@]1(O)c1ccc(Cl)cc1.Cl [Example 13, hydrochloride] | condition not met
C[C@@H]1CN(C(=O)[C@@H]2CN(c3ccccn3)C[C@H]2c2ccc(F)cc2F)C[C@H](C)[C@@]1(O)c1ccccc1.Cl [Example 31, hydrochloride] | condition not met

====

- system-name: human MCR4 receptor (Homo sapiens, UniProt P32245)
- Construct: expressed in transfected cells
- procedure-text: MCR4 improved functional assay (Protocol E): CHO-K1-MC4R-CRE-β-lactamase reporter
- Type: cell-based
- condition-parameters: Protocols C or E, read-out: functional potency at the MC4 receptor (EC50)
pEC50: −log10 of the molar value. Structures can show the parent of a compound that is named as a salt.

molecule | pEC50
CCN1C[C@@H](C(=O)N2C[C@@H](C)[C@](O)(c3ccc(OC)cc3)[C@@H](C)C2)[C@H](c2ccc(F)cc2F)C1 [Example 14, hydrochloride] | > 6.82
C[C@@H]1CN(C(=O)[C@@H]2CN(c3ccncn3)C[C@H]2c2ccc(F)cc2F)C[C@H](C)[C@@]1(O)c1ccccn1 [Example 44, hydrochloride] | > 7.30
CC(C)N1C[C@@H](C(=O)N2C[C@@H](C)[C@](O)(c3ccc(Cl)cc3)[C@@H](C)C2)[C@H](c2ccc(F)cc2F)C1 [Example 50, hydrochloride] | > 6.82
C[C@@H]1CN(C(=O)[C@@H]2CN(c3cnccn3)C[C@H]2c2ccc(F)cc2F)C[C@H](C)[C@@]1(O)c1ccccc1 [Example 33, hydrochloride] | > 6.82
CCC[C@@]1(O)[C@H](C)CN(C(=O)[C@@H]2CN(C(C)(C)C)C[C@H]2c2ccc(F)cc2F)C[C@@H]1C [Example 40, hydrochloride] | > 6.82
C[C@@H]1CN(C(=O)[C@@H]2CNC[C@H]2c2ccc(F)cc2F)C[C@H](C)[C@@]1(O)c1ccc(F)cc1F [Example 16, hydrochloride] | > 6.82
